Item-by-item account of IC50
target: APE1 (Homo sapiens); construct: made in house; assay: Gel-based APE1 incision assay with fluorescence (TAMRA) detection; format: biochemical; details: estimated IC50, fluorophore detection; entries 113-223; read-out: F-PAGE Assay IC50
Sequence (P27695 whole entry): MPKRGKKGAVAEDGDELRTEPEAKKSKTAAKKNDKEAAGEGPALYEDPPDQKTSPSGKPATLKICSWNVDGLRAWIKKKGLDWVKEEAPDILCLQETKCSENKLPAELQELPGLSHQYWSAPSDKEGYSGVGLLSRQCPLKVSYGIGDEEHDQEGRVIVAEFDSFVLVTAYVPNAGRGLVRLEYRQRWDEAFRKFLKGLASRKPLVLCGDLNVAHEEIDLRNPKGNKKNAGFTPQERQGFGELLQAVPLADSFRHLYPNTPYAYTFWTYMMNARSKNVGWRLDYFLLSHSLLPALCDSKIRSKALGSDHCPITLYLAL
I only need the number, in nM, no unit after it.

INSERT INTO assay_data (compound, unitofmeasure, readoutnumber) VALUES
  ('Nc1c(/C=C2/C=CC(=O)C(O)=C2)c(=O)nc2sc(CC(=O)N3CCCC3)nn12', 'nM', 1000),
  ('CC1CCc2c(sc(NC(=O)/C=C/c3cccs3)c2C(=O)O)C1 (stereo not drawn)', 'nM', 6300),
  ('COc1ccc(NC(=O)COC(=O)c2cc3c(s2)CCC3)cc1', 'nM', 7100),
  ('O=C(O)C1CCCCC1C(=O)Nc1cccc(Br)c1 (stereo not drawn)', 'nM', 900),
  ('NS(=O)(=O)c1ccc(NC(=O)CSc2nnc(NC3CC3)s2)cc1', 'nM', 6300),
  ('O=C1COc2ccc(C(=O)COC(=O)/C=C/c3ccc(Br)o3)cc2N1', 'nM', 2200),
  ('C=CC1=C(C(=O)O)N2C(=O)[C@@H](NC(=O)/C(=N\OCC(=O)O)c3csc(N)n3)[C@H]2SC1', 'nM', 2800),
  ('O=C(c1cccc(-n2cccc2)c1)N1CCN(S(=O)(=O)c2ccccc2)CC1', 'nM', 2500);

stdin: Look up and report IC50, with APE1 (Homo sapiens) as system, for Cc1ccc(C)c(S(=O)(=O)Nc2ccc3oc(C)c(C(=O)O)c3c2)c1
stdout: 2800
